Across several publications, the following pIC50 results were reported for Mcl-1 (Homo sapiens, UniProt Q07820).
Interpret pIC50 as the negative base-10 log of the concentration measured in mol/L.

Illustrative cases are given below, each with its answer.
COMPOUND	pIC50
Cn1nc2cc1CSc1cc(c3ccccc3c1)OCCCc1c(C(=O)O)n(C)c3c(c(Cl)ccc13)-c1c(nn3c1CCCCC3)CSC2	8.00
CO[C@@]1(CN2CCNCC2)C2=C[C@@H](C2)[C@H](C)[C@@H](C)S(=O)(=O)NC(=O)c2ccc3c(c2)N(C[C@@H]2CC[C@H]21)C[C@@]1(CCCc2c1ccc(Cl)c2F)CO3	7.59
Cn1nc2cc1CSc1cc(c3ccccc3c1)OCCCc1c(C(=O)O)n(C)c3c(c(Cl)ccc13)-c1c(nn3c1CCC3)CS(=O)(=O)C2	7.89

Input line: Form field: pIC50 recorded for Cc1c(C(=O)O)n2c3ccc(Cl)c(c13)-c1c(nn(C)c1C)CN(S(=O)(=O)c1ccn(C)n1)Cc1cc(n(C)n1)CSc1cc(c3ccc(F)cc3c1)OCCC2 with Mcl-1 (Homo sapiens, UniProt Q07820) (enter value)
Output line: 7.54

Input line: Could you do the same for C[C@@H]1[C@@H](C)S(=O)(=O)NC(=O)c2ccc3c(c2)N(C[C@@H]2CC[C@H]2[C@@H](OCC(=O)N(C)C)C2=C[C@H]1C2)C[C@@]1(CCCc2c1ccc(Cl)c2F)CO3 , please?
Output line: 7.85

Input line: Lookup C[C@@H]1[C@@H](C)S(=O)(=O)NC(=O)c2ccc3c(c2)N(C[C@@H]2CC[C@H]2[C@@H](OCC(=O)N2CCOCC2)C2=C[C@H]1C2)C[C@@]1(CCCc2c1ccc(Cl)c2F)CO3
Output line: 7.82

Input line: Same for Cn1nc2cc1CSc1cc(c3cc(F)ccc3c1)OCCCc1c(C(=O)O)n(C)c3c(c(Cl)ccc13)-c1c(nn3c1COCC3)CSC2
Output line: 7.68

Input line: Another compound: CO[C@@]1(CN2CCN(C3CCOCC3)CC2)C2=C[C@@H](C2)[C@H](C)[C@@H](C)S(=O)(=O)NC(=O)c2ccc3c(c2)N(C[C@@H]2CC[C@H]21)C[C@@]1(CCCc2c1ccc(Cl)c2F)CO3
Output line: 7.89

Input line: Another compound to check: C[C@@H]1[C@@H](C)S(=O)(=O)NC(=O)c2ccc3c(c2)N(C[C@@H]2CC[C@H]2[C@](O)(CN2CCN4CCOC[C@@H]4C2)C2=C[C@H]1C2)C[C@@]1(CCCc2c1ccc(Cl)c2F)CO3
Output line: 7.89

Input line: // same read-out, input: CCOC(=O)c1c(C)oc2c1c(C(c1cccc(F)c1)N1CCN(C)CC1)c(O)c1ccccc12 (centres unmarked)
Output line: 6.70

Input line: Follow-up entry: C[C@@H]1[C@@H](C)S(=O)(=O)NC(=O)c2ccc3c(c2)N(C[C@@H]2CC[C@H]2[C@@H](OCCS(C)(=O)=O)C2=C[C@H]1C2)C[C@@]1(CCCc2c1ccc(Cl)c2F)CO3
Output line: 8.00

---

Compiled IC50 measurements on UniProt:Q07820 taken from the literature.
Supply the numeric figure in nM, leaving out any unit text.

SMILES STR	RECORDED VALUE
C[C@@H]1[C@@H](C)S(=O)(=O)NC(=O)c2ccc3c(c2)N(C[C@@H]2CC[C@H]2[C@@H](OCCN2CCNC(=O)C2)C2=C[C@H]1C2)C[C@@]1(CCCc2c1ccc(Cl)c2F)CO3	20
Cc1c(C(=O)O)n2c3ccc(Cl)c(c13)-c1c(nn(C)c1C)CN(S(=O)(=O)c1cnn(C)c1)Cc1cc(n(C)n1)CSc1cc(c3ccc(F)cc3c1)OCCC2	27
Cn1nc2cc1CSCc1nn3c(c1-c1c(Cl)ccc4c(c(C(=O)O)n(C)c14)CCCOc1cc(cc4ccccc14)SC2)CCC3	150

Now look at this entry.
Input line: If you can, please state the reported IC50 value of CO[C@H]1C2CC(C2)[C@H](C)CS(=O)(=O)NC(=O)c2ccc3c(c2)N(C[C@@H]2CC[C@H]21)C[C@@]1(CCCc2cc(Cl)ccc21)CO3 .
Output line: 8

---

// note: IC50 values for Mcl-1 (Homo sapiens) were reported in different studies
# number only, unit nM dropped from output

Solved entries (count: 3):
SMILES STR	RECORDED VALUE
COc1cccc(CCN2CC(=O)N[C@@H](C(C)C)CC(=O)NCc3cccc(c3)CC(=O)N[C@@H](Cc3ccc(Cl)c(Cl)c3)C2=O)c1	22800
Cc1c2c(nn1C)CN(CCO)Cc1cc(n(C)n1)CSc1cc(c3ccccc3c1)OCCCc1c(C(=O)O)n(C)c3c-2c(Cl)ccc13	20
C[C@@H]1[C@@H](C)S(=O)(=O)NC(=O)c2ccc3c(c2)N(C[C@@H]2CC[C@H]2[C@@H](OCCN2CCCS2(=O)=O)C2=C[C@H]1C2)C[C@@]1(CCCc2c1ccc(Cl)c2F)CO3	14

Input line: Name the recorded IC50 for C[C@@H]1[C@@H](C)S(=O)(=O)NC(=O)c2ccc3c(c2)N(C[C@@H]2CC[C@H]2[C@@H](OCCN2CCNCC2)C2=C[C@H]1C2)C[C@@]1(CCCc2c1ccc(Cl)c2F)CO3 .
Output line: 15

---

Here we gather IC50 data for UniProt Q07820 reported by several publications.
Give the value in µM but do not write µM after it.

Examples from the recorded data:
SMILES STR	TARGET OR TEST SYSTEM	OUTPUT UNIT	RECORDED VALUE
CC(=O)NCc1c(C(=O)O)n2c3ccc(Cl)c(c13)-c1c(nn(C)c1C)CSCc1cc(n(C)n1)CSc1cc(c3ccccc3c1)OCCC2	UniProt Q07820	µM	0.018
CC(C)N1CCN(CCO[C@H]2C3=C[C@@H](C3)[C@H](C)[C@@H](C)S(=O)(=O)NC(=O)c3ccc4c(c3)N(C[C@@H]3CC[C@H]32)C[C@@]2(CCCc3c2ccc(Cl)c3F)CO4)CC1	UniProt Q07820	µM	0.012

Input line: If you can, please state the reported IC50 value of COCCO[C@H]1C2=C[C@@H](C2)[C@H](C)[C@@H](C)S(=O)(=O)NC(=O)c2ccc3c(c2)N(C[C@@H]2CC[C@H]21)C[C@@]1(CCCc2c1ccc(Cl)c2F)CO3 .
Output line: 0.015

Input line: Can you handle Cc1c(C(=O)O)n2c3ccc(Cl)c(c13)-c1c(nn(C)c1C)CN(C(=O)c1ncco1)Cc1cc(n(C)n1)CSc1cc(c3ccc(F)cc3c1)OCCC2 next?
Output line: 0.022

Input line: Let us now turn to COc1cc(CN2CC(=O)NCc3ccccc3C(=O)N[C@@H](Cc3ccc(Cl)c(Cl)c3)C(=O)N(CCc3ccc(F)cc3)CC2=O)cc(OC)c1
Output line: 13.5

---

Literature IC50 values, system: Mcl-1 (Homo sapiens, UniProt Q07820).
Sequence (Q07820 whole entry, species assumed): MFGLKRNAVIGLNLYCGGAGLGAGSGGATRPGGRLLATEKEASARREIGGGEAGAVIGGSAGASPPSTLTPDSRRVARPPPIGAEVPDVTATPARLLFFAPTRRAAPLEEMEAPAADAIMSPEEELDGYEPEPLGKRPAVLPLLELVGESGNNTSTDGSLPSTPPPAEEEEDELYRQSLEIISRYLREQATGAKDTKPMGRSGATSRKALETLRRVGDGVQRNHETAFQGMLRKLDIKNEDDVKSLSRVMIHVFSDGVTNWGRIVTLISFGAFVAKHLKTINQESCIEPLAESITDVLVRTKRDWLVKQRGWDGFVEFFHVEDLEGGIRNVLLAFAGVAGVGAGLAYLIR
Could you mark each record yes (1) if its IC50 falls strictly under 20 nM, and no (0) if it equals or exceeds it?

Some entries whose results are on file:
SMILES STR	DISCRETE LABEL
Cc1c(C(=O)O)n2c3ccc(Cl)c(c13)-c1c(nn(C)c1C)CN(C(C)C)Cc1cc(n(C)n1)CSc1cc(c3ccc(F)cc3c1)OCCC2	no (0)
COCCn1nc2c(c1C)-c1c(Cl)ccc3c1c(C)c(C(=O)O)n3CCCOc1cc(cc3ccccc13)SCc1cc(nn1C)CSC2	yes (1)
CO[C@@]1(CN2CCN(C3COC3)CC2)C2=C[C@@H](C2)[C@H](C)[C@@H](C)S(=O)(=O)NC(=O)c2ccc3c(c2)N(C[C@@H]2CC[C@H]21)C[C@@]1(CCCc2c1ccc(Cl)c2F)CO3	yes (1)

Input line: Please indicate whether the reported IC50 of Cc1c(C(=O)O)n2c3ccc(Cl)c(c13)-c1c(nn(C)c1C(F)F)CSCc1cc(n(C)n1)CSc1cc(c3ccc(F)cc3c1)OCCC2 is strictly below 20 nM.
Output line: yes (1)

Input line: Similarly, Cc1ccccc1CN1CC(=O)N[C@H](C(C)(C)C)C(=O)NCc2cccc(c2)CC(=O)N[C@H](Cc2ccc(Cl)c(Cl)c2)CC1=O ?
Output line: no (0)

Input line: Another molecule to check: Cc1c(C(=O)O)n2c3ccc(Cl)c(c13)-c1c(nn3c1COCC3)CN(S(=O)(=O)c1ccccc1)Cc1cc(n(C)n1)CSc1cc(c3ccc(F)cc3c1)OCCC2
Output line: no (0)

---

Here, molecules appear alongside pIC50 reported for Mcl-1 (Homo sapiens, UniProt Q07820) in the literature.
pIC50 field: float, defined as -log10 of concentration (mol/L).

// solved cases for pIC50 follow
SMILES STR	pIC50
Cc1c(C(=O)O)n2c3ccc(Cl)c(c13)-c1c(nn(C)c1C)CN(S(=O)(=O)N(C)C)Cc1cc(n(C)n1)CSc1cc(c3ccc(F)cc3c1)OCCC2	7.89
Cc1c2c(nn1C)CN(S(=O)(=O)C(F)(F)F)Cc1cc(n(C)n1)CSc1cc(c3ccc(F)cc3c1)OCCCc1c(C(=O)O)n(C)c3c-2c(Cl)ccc13	7.92
Cc1c2c(nn1C)CN(C1CC1)Cc1cc(n(C)n1)CSc1cc(c3ccccc3c1)OCCCc1c(C(=O)O)n(C)c3c-2c(Cl)ccc13	7.68
C[C@@H]1[C@@H](C)S(=O)(=O)NC(=O)c2ccc3c(c2)N(C[C@@H]2CC[C@H]2[C@@H](OCCN2CCN(C4CCOCC4)CC2)C2=C[C@H]1C2)C[C@@]1(CCCc2c1ccc(Cl)c2F)CO3	7.96

Kindly consider the entry below.
Input line: What pIC50 value was documented for this molecule, C[C@@H]1[C@@H](C)S(=O)(=O)NC(=O)c2ccc3c(c2)N(C[C@@H]2CC[C@H]2[C@@H](OCc2ncccn2)C2=C[C@H]1C2)C[C@@]1(CCCc2c1ccc(Cl)c2F)CO3 ?
Output line: 8.09
